RUN DESCRIPTION: Phase solubility of prasugrel in aqueous SBE6.5-β-CD or HP4.3-β-CD at pH 4
Type: physicochemical
EXPERIMENTAL SETUP: aqueous solution, pH 4, aqueous buffer, thermodynamic from solid, Prasugrel Solubility w/ SBE6.5-β-CD, cyclodextrin derivative 0% w/v
PROPERTY: solubility (µg/mL)
API: value field is a number in µg/mL; no unit string.

-- ask Which solubility reading was recorded for the compound CC(=O)Oc1cc2c(s1)CCN(C(C(=O)C1CC1)c1ccccc1F)C2 (racemic) [Prasugrel] ?
-- reply 206

----------
RUN DESCRIPTION: Phase solubility of prasugrel in aqueous SBE6.5-β-CD or HP4.3-β-CD at pH 4
Format: physicochemical
EXPERIMENTAL SETUP: aqueous solution, pH 4, aqueous with cosolvent or surfactant or cyclodextrin, thermodynamic from solid, Prasugrel Solubility w/ SBE6.5-β-CD, SBE6.5-β-CD 40% w/v
PROPERTY: solubility (µg/mL)
Report the value in µg/mL with no unit label.

-- ask What measured solubility goes with CC(=O)Oc1cc2c(s1)CCN(C(C(=O)C1CC1)c1ccccc1F)C2 (racemic) ?
-- reply 927

----------
RUN DESCRIPTION: Phase solubility of prasugrel in aqueous SBE6.5-β-CD at pH 7.4
Format: physicochemical
EXPERIMENTAL SETUP: aqueous solution, pH 7.4, aqueous with cosolvent or surfactant or cyclodextrin, thermodynamic from solid, Prasugrel Solubility, SBE6.5-β-CD 40% w/v
PROPERTY: solubility (µg/mL)
Numbers only here, please. The scale is µg/mL.

-- ask What value of solubility has been reported for the following compound? CC(=O)Oc1cc2c(s1)CCN(C(C(=O)C1CC1)c1ccccc1F)C2 (racemic)
-- reply 515

----------
RUN DESCRIPTION: Phase solubility of prasugrel in aqueous SBE6.5-β-CD or HP4.3-β-CD at pH 4
Assay type: physicochemical
EXPERIMENTAL SETUP: aqueous solution, pH 4, aqueous with cosolvent or surfactant or cyclodextrin, thermodynamic from solid, Prasugrel Solubility w/ SBE6.5-β-CD, SBE6.5-β-CD 10% w/v
PROPERTY: solubility (µg/mL)
Give just the numeric value; µg/mL need not be written.

-- ask Field request: solubility | item: CC(=O)Oc1cc2c(s1)CCN(C(C(=O)C1CC1)c1ccccc1F)C2 (racemic)
-- reply 736
